assay_summary: Clearance in mouse at 1 mg/kg, iv upto 48 hrs by LC/MS/MS analysis
Assay type: ADME, organism-based
study_conditions: in vivo
measurement_kind: clearance (mL/min/kg)
API: value field is a number in mL/min/kg; no unit string.

Ask | Dear colleague, I am looking for the recorded clearance of the following compound: O=C(Nc1ccn(-c2ccnc(F)c2)n1)C1(c2ccccc2F)CC1
Reply | 10.7

---

test_system: Very long chain fatty acid elongase 1 (Homo sapiens, UniProt Q9BW60)
Sequence (Q9BW60 whole entry): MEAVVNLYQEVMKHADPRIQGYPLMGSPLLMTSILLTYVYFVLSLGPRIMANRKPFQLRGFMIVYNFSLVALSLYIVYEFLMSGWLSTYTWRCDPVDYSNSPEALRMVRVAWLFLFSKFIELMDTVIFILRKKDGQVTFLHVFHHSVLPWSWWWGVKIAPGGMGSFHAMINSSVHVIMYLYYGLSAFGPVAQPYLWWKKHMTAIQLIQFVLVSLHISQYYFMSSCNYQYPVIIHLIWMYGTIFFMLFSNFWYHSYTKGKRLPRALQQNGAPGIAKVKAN
assay_summary: Inhibition of ELOVL1 (unknown origin) using C22-acyl-CoA as substrate by radiometric enzyme assay
Label True when IC50 < 2000 nM; otherwise False.

Ask | # TODO verify IC50 < 2000 nM strictly for this compound: O=C(Cc1ccccc1F)Nc1ncc(-c2ccccc2)o1
Reply | False

Ask | Entry COc1ccc(C2(C(=O)Nc3ccn(-c4cncc(F)c4)n3)CC2)cc1 please
Reply | False

Ask | Entry O=C(Nc1ccn(-c2ccnc(F)c2)n1)C1(c2ccccc2F)CC1 please
Reply | True

Ask | Entry O=C(Cc1ccccc1F)Nc1ccn(-c2ccccc2)n1 please
Reply | True

Ask | Entry O=C(Nc1ccn(-c2ccccc2)n1)C1(c2ccccc2)COC1 please
Reply | False

Ask | Entry N#Cc1cccc(C2(C(=O)Nc3ccn(-c4cncc(F)c4)n3)CC2)c1 please
Reply | False

Ask | Entry O=C(Cc1ccccc1F)Nc1ncn(-c2ccccc2)n1 please
Reply | False

Ask | Entry O=C(Nc1nc(-c2ccncc2)cs1)C1(c2ccccc2)CC1 please
Reply | True

Ask | Entry O=C(Nc1ccn(-c2ccccc2)n1)C1(c2ccccc2F)CC1 please
Reply | True

Ask | Entry O=C(Cc1ccccc1)Nc1nc(-c2ccccc2)cs1 please
Reply | False

Ask | Entry O=C(Nc1ccn(-c2ccccc2)n1)C1(c2ccccc2)CC1 please
Reply | True

Ask | Entry O=C(Nc1ccn(-c2ccncn2)n1)C1(c2ccccc2F)CC1 please
Reply | True

Ask | Entry Cc1cc(-n2ccc(NC(=O)C3(c4ccccc4F)CC3)n2)ccn1 please
Reply | False

Ask | Entry C[C@@H](C(=O)Nc1ccn(-c2ccccc2)n1)c1ccccc1 please
Reply | True

Ask | Entry O=C(Nc1ccn(-c2cncc(F)c2)n1)C1(c2cccc(F)c2)CC1 please
Reply | True

Ask | Entry O=C(Cc1ccccc1F)Nc1nc(-c2ccnc(F)c2)cs1 please
Reply | False

Ask | Entry O=C(Cc1ccccc1F)Nc1cnn(-c2ccccc2)n1 please
Reply | False

Ask | Entry O=C(Nc1ccn(-c2cncc(F)c2)n1)C1(c2c(F)cccc2F)CC1 please
Reply | True

Ask | Entry O=C(Nc1ccn(-c2ccccc2)n1)C1(c2ccccc2)CC1(F)F (stereo not drawn) please
Reply | True

Ask | Entry Nc1cc(-n2ccc(NC(=O)C3(c4ccccc4F)CC3)n2)ccn1 please
Reply | False

Ask | Entry O=C(Nc1ccn(-c2cncc(F)c2)n1)C1(c2ccc(Cl)cc2)CC1 please
Reply | False

Ask | Entry COc1cccc(C2(C(=O)Nc3ccn(-c4cncc(F)c4)n3)CC2)c1 please
Reply | True
